The reader will find reported Kd values listed item by item below.
# testSystem: FLT3 R834Q (Homo sapiens, UniProt P36888, R834Q)
# assaySummary: DiscoverX KINOMEscan active site-directed competition binding, FLT3 R834Q
# conditions: Table 19; no ATP
# Excerpt: Kinase binding data were obtained for various exemplary compounds prepared according to Examples 1-8 using the DiscoverX KINOMEscan® active site-directed competition binding site-directed assay protocol described below. […] Compounds that directly or indirectly prevent kinase binding to the immobilized ligand reduce the amount of kinase captured on the solid support, which is detected using an ultra-sensitive qPCR method. […]
Numbers only; they are read as nM.

Take a look at these entries with their results.
> print(dat)
                                   compound  unitinfo  measurement
1  COc1cn2ncc(-c3cncc(N[C@H]4CNCC[C@@H]4F)n3)c2nc1C1CC1 [Compound 12a]        nM         0.35
2  COc1cn2ncc(-c3ccnc(N[C@H]4CNCC[C@@H]4F)n3)c2nc1C1CC1        nM         0.43

So what does the record say about Kd for "COc1cn2ncc(-c3nc(N[C@H]4CNCC[C@@H]4F)ncc3F)c2nc1C(C)(C)O" ?
3.8

The reported measurements were obtained from patent US20260374773A1.
